# procedureSummary: yeast display, Sf9 membrane polyspecificity reagent, FACS + sequencing; frameworks hold sequencing errors
endpointLabel: polyreactivity (PSR sort gate)

Solved cases (4 shown):
# itemSequence, polyreactivity (PSR sort gate)
measured = [
    ("QVHLVESGGGLVQAGCSLRLSCAASGSTISRYAMGWNRQAPGKETELVATITGGGRTYYADSVKGRFTISRDNAKNTVYLQMNSLKPEDTAVYYCAVRGYHQYKYGYWGQGTQVTVSS", "high polyreactivity"),
    ("QVQLQESGGGLVQARGSLRLSSAASGYISYLDFMGWYGQAPGKERELVAGITTGATTNYADSVKGRFTISRDNAKNIVYQQINSLKQEDTAVYYCARGTEVKSGISYRFYYWGQGTQVTVSS", "low polyreactivity"),
    ("QVQLVESGGGLVQAGGSLRLSCAASGRIFRFYAMGWYRQAPRKERELVAAITSGGSTYYADSVKGRFTISRDNAKNTVYLQMNSLKPEDTAVYYCANYYWGQGTQVTVSS", "low polyreactivity"),
    ("QLQLEESGGGLVQAGGSLRLSFAASGLTFGRNAMGWYRQATGKVREFVAAISKSGTSTYYADSVKGRFTISRDNAKNTVYLQMISLKPEDTAVYDCARTNYAKRWDFDYWGQGTQVTVSS", "low polyreactivity"),
]

Consider the additional sequence presented here.
Incoming: I'd like to know its polyreactivity (PSR sort gate). The sequence in question is QVQLVESGGGLVQAGGSLRLSCAASGFTFNYYAMGWYRQAPGKERELVAAISRSGGSTSYADSVKGRFTISRDNAKNTVYLQMNSLKPEDTAVYYCNAVRAIYRYDYWGQGTQVTVSS
Outgoing: high polyreactivity

* * *

# procedureSummary: yeast display, Sf9 membrane polyspecificity reagent, FACS + sequencing; frameworks hold sequencing errors

# itemSequence, polyreactivity (PSR sort gate)
records = [
    ("QVQLVESGGGLVQAGGSLRLSCAASGYIFYENAMGWYRQAPGKERELVAAIRFTGGSTYYADSVKGRFTISRDNAKNTVYLQMNSLKPEDTAVYYCSKSYPDTQRYQYPRGWELDYWGQGTQVTVSS", "low polyreactivity"),
    ("QVQLVESGGCLVQAGGSLRLSCAASGRIFAWYAMGWYRQAPGKERELVAAISDSGGSTYYADSVKGRFTISRDNAKNTVYLQMNSLKQEDTAVYYCAADQVVYSAYWSDHYDYWGQGTQVTVSS", "low polyreactivity"),
]

* * *

# procedureSummary: yeast display, Sf9 membrane polyspecificity reagent, FACS + sequencing; frameworks hold sequencing errors
endpointLabel: polyreactivity (PSR sort gate)

Solved cases (5 shown):
# itemSequence, polyreactivity (PSR sort gate)
measured = [
    ("QVHLVESGGGLVQAGGSLRLSCAASGRTFWLNAMGWYRQAPGKERELVATISSSSGSTTYADSVKGRFTISRDNAKNTVYLQINSLKPEDTAVYYCAVYSHKKVRPEYDYWGQGTQVTVSS", "low polyreactivity"),
    ("QVQLVESGGGLVQAGGSLRLSCAPSGRSFASYAMGWYRQAPGKERELVAAISKSGGRTYYADSVKGRFTISRDNAKNTVYLQMNSLKPEDTAVYYCAAYFWTRSGTPNYDYWGQGTQVTVSS", "high polyreactivity"),
    ("QVQLVESGGGLVQAGGSLRLSCAASGITFYGYAMGWYRHAPGKERELVATISSGGGTNYADSVKGRFTISRDNAKNTVYLQMNSLKPEDSAVYYCATDLSTVDYNYWGQGTQVTVSS", "low polyreactivity"),
    ("QVQLVESGGGLVQAGGSLRLSCAASGSTFGFYAMGWYRQAPGKERELVAAITSGDITYADSVKGRFTISRDNAKNTVYLQMNSLKPEDTAVYYCAASGPYSYDWGQGTQVTVSS", "low polyreactivity"),
    ("QVQLVESGGGLVQAGGSLRLSCAASGFIFWVYAMGWYIQAPGKERELVAAITSGGGSTYYADSVKGRFTISRDNAKNTVYIQMNSLKPDDTAVYYCATRIRTVAYNYWGQGTQVTVSS", "high polyreactivity"),
]

Incoming: I'd like to know its polyreactivity (PSR sort gate). The sequence in question is QVQLVESGGGLVQAGGSLRLSCAASGSTFAYNAMGWYRQAPGKERELVAAISKGGGSTYYADSVKGRFTISRDNAKNTVYLQMNSLKPEDTAVYYCNAYYRSPRGYNYWGQGTQVTVSS
Outgoing: high polyreactivity

Incoming: I'd like to know its polyreactivity (PSR sort gate). The sequence in question is QVQLVESGGGLVQAGGSLRLSCAASGRTFRYYAMGWYRQAPGKERELVAAISSRGNTYYADSVKGRFTISRDNAKNTVYLQLNSLKPEDTAVYYCAAYVYRVQYDFVYWGQGTQVTVSS
Outgoing: high polyreactivity

Incoming: I'd like to know its polyreactivity (PSR sort gate). The sequence in question is QVQLVESGGGLVHAGGSLRLSCDASGLTFAYYAMGWYRQAPGKERELVAAISWNGGRTYYADSVKGRFTISRDNAKNTVYLQMNSLKPEDTAVYYCAAQVTSSFYWGQGTQVTVSS
Outgoing: high polyreactivity
